All values here come from ChEMBL document CHEMBL1201862.

System: MDA-N
test-description: NCI tumour cell line growth inhibition, 48 h
Active and inactive are the calls of the source. Rule as the data show it: active = GI50 up to about 1.1 µM and inactive = higher.
readout: GI50

Lookup: Look up GI50: `O=c1ccn(CC2(CO)CCCC2)c(=O)[nH]1`
Found: > 100 µM (inactive)

Lookup: Next record, please: `O=C(c1ccccc1)N(CCCCNC(=O)C(F)(F)F)CCCNC(=O)C(F)(F)F`
Found: > 100 µM (inactive)

* * *

Tested on: NCI-H23
test-description: NCI tumour cell line growth inhibition, 48 h
Activity calls are given as the source filed them. No stated cut-off is given here; in the data, active = GI50 up to about 1.1 µM and inactive = higher.
Mark one answer only. Choices: class 1 for active, class 0 for inactive

Past entries and their recorded results:
molecule	class-name
Cc1ccc(NC(=O)CC(=O)n2nc(C)c(/N=N/c3ccc(S(=O)(=O)CCOS(=O)(=O)O)cc3)c2C)cc1	class 0
CCOC(=O)/C(C(=O)Nc1cccc(C(F)(F)F)c1)=C(/N)N1CCOCC1	class 0

Lookup: Dear all, I need the recorded test outcome for `CC(C)NCCCNc1c2ccccc2nc2cccc([N+](=O)[O-])c12` , thank you.
Found: class 1

Lookup: Next record, please: `O=C(NC/C=C/CO)c1ccccc1`
Found: class 0

Lookup: Next record, please: `CC(=O)C(=C(c1ccccc1)c1ccccc1)c1ccccc1`
Found: class 0
